experiment notes: Pharmacokinetics of LN002 in rat plasma after single intravenous injection or oral gavage
Type: in vivo, Sprague–Dawley (SD) rats
assay conditions: both sexes, Sprague-Dawley, rat; plasma, oral 100 mg/kg, rats, n = 6
outcome measure: Tmax (h)
Report only the number, with the unit h understood.

State its Tmax: N#C/C(=C\c1c[nH]nc1-c1ccccc1)c1nn(-c2ccccc2)c(N)c1C#N [LN002]
1

* * *

experiment notes: Pharmacokinetics of LN002 in rat plasma after single intravenous injection or oral gavage
Assay type: in vivo, Sprague–Dawley (SD) rats
assay conditions: both sexes, Sprague-Dawley, rat, plasma, po, 100 mg/kg, oral 100 mg/kg, rats; read-out: F (oral bioavailability)
outcome measure: bioavailability (%)
Report only the number, with the unit % understood.

State its bioavailability: N#C/C(=C\c1c[nH]nc1-c1ccccc1)c1nn(-c2ccccc2)c(N)c1C#N
0.32

* * *

experiment notes: Pharmacokinetics of LN002 in rat plasma after single intravenous injection or oral gavage
Type: in vivo, Sprague–Dawley (SD) rats
assay conditions: both sexes, Sprague-Dawley, rat, plasma, po, 400 mg/kg, plasma, oral single dose, range across 100, 200 and 400 mg/kg, rats; read-out: Cl/F
outcome measure: CL/F

State its CL/F: N#C/C(=C\c1c[nH]nc1-c1ccccc1)c1nn(-c2ccccc2)c(N)c1C#N
433 to 650 mL/min/kg

* * *

experiment notes: Pharmacokinetics of LN002 in rat plasma after single intravenous injection or oral gavage
Assay type: in vivo, Sprague–Dawley (SD) rats
assay conditions: both sexes, Sprague-Dawley, rat; plasma, oral 400 mg/kg, rats, n = 6, mean ± SD
outcome measure: Vd/F

State its Vd/F: N#C/C(=C\c1c[nH]nc1-c1ccccc1)c1nn(-c2ccccc2)c(N)c1C#N
869 L/kg

* * *

experiment notes: Tissue distribution of LN002 after oral administration in rats
Assay type: in vivo, Sprague–Dawley (SD) rats
assay conditions: both sexes, Sprague-Dawley, rat; heart, oral 200 mg/kg, SD rats, n = 6, mean ± SD
outcome measure: half-life (h)
Report only the number, with the unit h understood.

State its half-life: N#C/C(=C\c1c[nH]nc1-c1ccccc1)c1nn(-c2ccccc2)c(N)c1C#N
6.82

* * *

experiment notes: Tissue distribution of LN002 after oral administration in rats
Format: in vivo, Sprague–Dawley (SD) rats
assay conditions: both sexes, Sprague-Dawley, rat; muscle, oral 200 mg/kg, SD rats, n = 6, mean ± SD
outcome measure: Cmax (ng/g)
Report only the number, with the unit ng/g understood.

State its Cmax: N#C/C(=C\c1c[nH]nc1-c1ccccc1)c1nn(-c2ccccc2)c(N)c1C#N
3980

* * *

experiment notes: Pharmacokinetics of LN002 in rat plasma after single intravenous injection or oral gavage
Type: in vivo, Sprague–Dawley (SD) rats
assay conditions: both sexes, Sprague-Dawley, rat; plasma, oral 100 mg/kg, rats, n = 6, mean ± SD
outcome measure: AUC(0-inf)

State its AUC(0-inf): N#C/C(=C\c1c[nH]nc1-c1ccccc1)c1nn(-c2ccccc2)c(N)c1C#N
3530 ng·h/mL

* * *

experiment notes: Tissue distribution of LN002 after oral administration in rats
Assay type: in vivo, Sprague–Dawley (SD) rats
assay conditions: both sexes, Sprague-Dawley, rat; intestine, oral 200 mg/kg, SD rats, n = 6, mean ± SD
outcome measure: Cmax (ng/g)
Report only the number, with the unit ng/g understood.

State its Cmax: N#C/C(=C\c1c[nH]nc1-c1ccccc1)c1nn(-c2ccccc2)c(N)c1C#N
607000
